Biological target: T1, CotD, tip adhesin of CS2 fimbriae on wild type ETEC strain C91f (Escherichia coli (ETEC) strain C91f)
T1 chain: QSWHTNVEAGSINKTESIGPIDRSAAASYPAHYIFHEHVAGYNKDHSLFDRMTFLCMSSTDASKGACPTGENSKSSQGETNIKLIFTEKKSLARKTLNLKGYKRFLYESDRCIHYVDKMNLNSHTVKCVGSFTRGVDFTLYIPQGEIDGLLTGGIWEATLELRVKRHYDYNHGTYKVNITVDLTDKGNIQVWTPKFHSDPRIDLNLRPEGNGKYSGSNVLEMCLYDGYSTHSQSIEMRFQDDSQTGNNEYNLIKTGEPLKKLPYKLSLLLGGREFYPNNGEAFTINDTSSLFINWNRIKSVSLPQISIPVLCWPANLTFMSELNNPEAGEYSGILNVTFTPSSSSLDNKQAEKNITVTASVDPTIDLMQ
Test: cell-based or functional assay
READOUT LABEL: MIC in HAI

Summary for this binder, anti-CfaE mouse mAb P5C7 (antibody, V domains shown) VH: QIQLVQSGPELKKPGETVKISCKASGYTFTNYGMNWVKQAPGKGLKWMGWINTYTGEPTYTDDFKGRFAFSLETSASTAYLQINSLKTEDTATYFCARMEYGNYENAMDSWGQGTSVTVSS VL: DTVMTQSHKFMSTSVGDRVSITCKASQDVSTAVVWYQQKPGQSPKLLIYSASYRYTGVPDRFTGSGSGTDFTFTISSVQAEDLAVYYCLQHFNIPRTFGGGTKLEIK : MIC in HAI is > 250 µg/mL

Summary for this binder, anti-CsbD mouse mAb P7C2 (antibody, V domains shown) VH: EVKLEESGGGLVQPGGSMKLSCAASGFTFSDAWMDWVRQSPEKGLEWVGKIRSEINDHATYYAESVKGRFTISRDDSKSGVYLQMNNLRAEDTGIYYCARDGYYGAMDYWGQGTSVTVSS VL: DVQITQSPSYLAASPGETITINCRSNKSISRYLAWYQEKPGKTNKLLIYSGSTLQSGIPSRFSGSGSNTDFTLTISSLEPEDFAMYYCQQHNEYPYTFGSGTKLEIK : MIC in HAI is > 250 µg/mL

Summary for this binder, anti-CfaE mouse mAb P8D10 (antibody, V domains shown, also called full length P8D10 mAb) VH: QIQLVQSGPELKKPGETVKISCKASGYTFTNYGMNWVKQAPGKGLKWMGWINTYTGQSTYADDFKGRFAFSLETSASTAHLQISNLKNEDAATYFCARMEYGNYENALDYWGQGTSVTVSS VL: DIVMTQSHKFMSTSIGDRVSITCKASQDVSTAVVWYQQKPGHSPKLLIYSASYRYTGVPDRFTGSGSGTDFTFTISSVQAEDLAVYYCLQHFSTPRTFGGGTNLEIK : MIC in HAI is > 250 µg/mL
